Reference for the values: the supplement of paper PMC10126150

- Tested on: ATP;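 note: ATP exposure 15 min at 22 °C before imaging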
- Procedure Details: switch fluorescence ratio, 500 uM ATP over buffer (Cy3 cluster intensity, sum of 5 cycles each) (fold (ratio)); higher = stronger signal-on switching upon ATP binding; sequences stand for … in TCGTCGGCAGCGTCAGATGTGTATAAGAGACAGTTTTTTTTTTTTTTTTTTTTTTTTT…TC
- Stated Conditions: aptamer strand: ATP DNA aptamer (quencher-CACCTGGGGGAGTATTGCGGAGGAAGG + anchor), 100 nM annealed; ATP concentration: 500 uM
Overview of recorded switch fluorescence ratio for various sequences
Readout Name: switch fluorescence ratio

sequence_data=AGCTTGGATA readout_name="switch fluorescence ratio" recorded_measurement=1.02
sequence_data=CGCGGGTATT readout_name="switch fluorescence ratio" recorded_measurement=1.02
sequence_data=CATTCACATT readout_name="switch fluorescence ratio" recorded_measurement=1.05
sequence_data=TTTGCTGTAT readout_name="switch fluorescence ratio" recorded_measurement=0.975
sequence_data=CGGGTCCATT readout_name="switch fluorescence ratio" recorded_measurement=0.981
sequence_data=TTGCTACTCG readout_name="switch fluorescence ratio" recorded_measurement=1.62
sequence_data=TTTTTGAGTT readout_name="switch fluorescence ratio" recorded_measurement=0.977
sequence_data=ATTCAATCCA readout_name="switch fluorescence ratio" recorded_measurement=0.989
sequence_data=TCATTTTTGG readout_name="switch fluorescence ratio" recorded_measurement=1
sequence_data=CTAGTTCGTC readout_name="switch fluorescence ratio" recorded_measurement=0.972
sequence_data=TAGGGGGGTA readout_name="switch fluorescence ratio" recorded_measurement=0.982
sequence_data=GGGCGACACG readout_name="switch fluorescence ratio" recorded_measurement=1
sequence_data=TTCCTTGTTA readout_name="switch fluorescence ratio" recorded_measurement=0.997
sequence_data=GCGTTAGTAG readout_name="switch fluorescence ratio" recorded_measurement=0.997
sequence_data=CATATAAACT readout_name="switch fluorescence ratio" recorded_measurement=1.04
sequence_data=TCACTTATAA readout_name="switch fluorescence ratio" recorded_measurement=1.02
sequence_data=TTTTTAGTGC readout_name="switch fluorescence ratio" recorded_measurement=1
sequence_data=AAAACAGGAT readout_name="switch fluorescence ratio" recorded_measurement=0.995
sequence_data=ATGATTGCGA readout_name="switch fluorescence ratio" recorded_measurement=1.01
sequence_data=ACCTGGAAAA readout_name="switch fluorescence ratio" recorded_measurement=0.999
sequence_data=TTTTCATCTG readout_name="switch fluorescence ratio" recorded_measurement=1.03
sequence_data=CATGAGGGAG readout_name="switch fluorescence ratio" recorded_measurement=0.996
sequence_data=AATGCAGATT readout_name="switch fluorescence ratio" recorded_measurement=1.03
sequence_data=GTTGTTTTGA readout_name="switch fluorescence ratio" recorded_measurement=0.994
sequence_data=ATAAATGCGT readout_name="switch fluorescence ratio" recorded_measurement=1
sequence_data=AAAAGGTGCC readout_name="switch fluorescence ratio" recorded_measurement=1.13
sequence_data=AGCATTTTTG readout_name="switch fluorescence ratio" recorded_measurement=1.02
sequence_data=ATCGACTTTT readout_name="switch fluorescence ratio" recorded_measurement=1.01
sequence_data=AGAATTGAGG readout_name="switch fluorescence ratio" recorded_measurement=0.979
sequence_data=GGGAATCTTC readout_name="switch fluorescence ratio" recorded_measurement=1.01
sequence_data=GTTGTCATGC readout_name="switch fluorescence ratio" recorded_measurement=1.02
sequence_data=GAATGAGATC readout_name="switch fluorescence ratio" recorded_measurement=1.01
sequence_data=ATGAGTTATT readout_name="switch fluorescence ratio" recorded_measurement=1.01
sequence_data=TGGAGAAGAT readout_name="switch fluorescence ratio" recorded_measurement=0.978
